Assay: Luminescent data (absorption, emission, quantum yield, brightness) in solvents
Assay type: physicochemical
Conditions: Acetonitrile (ϵr 37.5, viscosity 0.38 cP)
In this section we review reported pSS values for a set of compounds.
Could you give me the number in cm^−1? Just the number is fine.

Answered examples (5):
CCCCCOc1cc2c3cc(OCCCCC)c(OCCCCC)cc3c3c(cc(OCCCCC)c4oc(-c5c6ccccc6cc6ccccc56)nc43)c2cc1OCCCCC [Compound 6]
23650
CCCCCOc1cc2c3cc(OCCCCC)c(OCCCCC)cc3c3c(cc(OCCCCC)c4oc(-c5ccc6ccccc6c5)nc43)c2cc1OCCCCC [Compound 3]
17600
CCCCCOc1cc2c3cc(OCCCCC)c(OCCCCC)cc3c3c(cc(OCCCCC)c4oc(-c5ccccc5)nc43)c2cc1OCCCCC [Compound 2]
16700
CCCCCOc1cc2c3cc(OCCCCC)c(OCCCCC)cc3c3c(cc(OCCCCC)c4oc(-c5cccc6ccccc56)nc43)c2cc1OCCCCC [Compound 4]
18000
CCCCCOc1cc2c3cc(OCCCCC)c(OCCCCC)cc3c3c(cc(OCCCCC)c4oc(CCCC)nc43)c2cc1OCCCCC [Compound 1]
8300

Shift focus to the following entry.
Record request: pSS value, item CCCCCOc1cc2c3cc(OCCCCC)c(OCCCCC)cc3c3c(cc(OCCCCC)c4oc(-c5ccc6cc7ccccc7cc6c5)nc43)c2cc1OCCCCC [Compound 5]
20200

====

Assay: Luminescent data (absorption, emission, quantum yield, brightness) in solvents
Type: physicochemical
Settings: Ethyl acetate (ϵr 6.0, viscosity 0.45 cP)
The entries below come with measured Absorption λmax values attached.
Respond with the bare value in nm.

CCCCCOc1cc2c3cc(OCCCCC)c(OCCCCC)cc3c3c(cc(OCCCCC)c4oc(-c5c6ccccc6cc6ccccc56)nc43)c2cc1OCCCCC
253
CCCCCOc1cc2c3cc(OCCCCC)c(OCCCCC)cc3c3c(cc(OCCCCC)c4oc(CCCC)nc43)c2cc1OCCCCC
281

# context switch: different compound, same Absorption λmax
May I ask what Absorption λmax has been recorded for `CCCCCOc1cc2c3cc(OCCCCC)c(OCCCCC)cc3c3c(cc(OCCCCC)c4oc(-c5cccc6ccccc56)nc43)c2cc1OCCCCC` ?
275

====

Assay: Luminescence data for pairs of compounds absorbing at the same wavelength and emitting at different wavelengths
Assay type: physicochemical
Details: at λMax; solvent not given
Overview of reported ε × 10^3 (M^−1 cm^−1) at λMax across a group of compounds:

Worked examples, 3 compounds total:
CCCCCOc1cc2c3cc(OCCCCC)c(OCCCCC)cc3c3c(cc(OCCCCC)c4oc(-c5ccc(C#N)cc5)nc43)c2cc1OCCCCC [Compound 12]
103 × 10^3 M^−1 cm^−1
CCCCCOc1cc2c3cc(OCCCCC)c(OCCCCC)cc3c3c(cc(OCCCCC)c4oc(-c5ccc(OC)cc5)nc43)c2cc1OCCCCC [Compound 45]
97 × 10^3 M^−1 cm^−1
CCCCCOc1cc2c3cc(OCCCCC)c(OCCCCC)cc3c3c(cc(OCCCCC)c4oc(-c5ccc6ccccc6c5)nc43)c2cc1OCCCCC [Compound 3]
164 × 10^3 M^−1 cm^−1

Attention now shifts to the item below.
Entry CCCCCOc1cc2c3cc(OCCCCC)c(OCCCCC)cc3c3c(cc(OCCCCC)c4oc(-c5ccc(N(C)C)cc5)nc43)c2cc1OCCCCC [Compound 22] has what ε × 10^3 (M^−1 cm^−1) at λMax?
72 × 10^3 M^−1 cm^−1

====

Test: Luminescent data (absorption, emission, quantum yield, brightness) in solvents
Format: physicochemical
Details: Acetonitrile (ϵr 37.5, viscosity 0.38 cP)
In this section, each of the compounds is paired with its reported Emission λmax.
Entry rule: numbers only, all in nm.

Worked set:
CCCCCOc1cc2c3cc(OCCCCC)c(OCCCCC)cc3c3c(cc(OCCCCC)c4oc(-c5ccccc5)nc43)c2cc1OCCCCC
492
CCCCCOc1cc2c3cc(OCCCCC)c(OCCCCC)cc3c3c(cc(OCCCCC)c4oc(-c5ccc6cc7ccccc7cc6c5)nc43)c2cc1OCCCCC
592
CCCCCOc1cc2c3cc(OCCCCC)c(OCCCCC)cc3c3c(cc(OCCCCC)c4oc(CCCC)nc43)c2cc1OCCCCC
367
CCCCCOc1cc2c3cc(OCCCCC)c(OCCCCC)cc3c3c(cc(OCCCCC)c4oc(-c5c6ccccc6cc6ccccc56)nc43)c2cc1OCCCCC
630

I am curious: what Emission λmax value has been reported for `CCCCCOc1cc2c3cc(OCCCCC)c(OCCCCC)cc3c3c(cc(OCCCCC)c4oc(-c5ccc6ccccc6c5)nc43)c2cc1OCCCCC` ?
524

Now the same for `CCCCCOc1cc2c3cc(OCCCCC)c(OCCCCC)cc3c3c(cc(OCCCCC)c4oc(-c5cccc6ccccc56)nc43)c2cc1OCCCCC`
543

====

The entries below come with measured ε × 10^3 (M^−1 cm^−1) at 405 nm values attached.
Test: Luminescence data for pairs of compounds absorbing at the same wavelength and emitting at different wavelengths
Assay type: physicochemical
Settings: at 405 nm; solvent not given

Please review the entries below; each comes with its answer.
CCCCCOc1cc2c3cc(OCCCCC)c(OCCCCC)cc3c3c(cc(OCCCCC)c4oc(-c5ccc6ccccc6c5)nc43)c2cc1OCCCCC
13 × 10^3 M^−1 cm^−1
CCCCCOc1cc2c3cc(OCCCCC)c(OCCCCC)cc3c3c(cc(OCCCCC)c4oc(-c5ccc(C#N)cc5)nc43)c2cc1OCCCCC
14 × 10^3 M^−1 cm^−1
CCCCCOc1cc2c3cc(OCCCCC)c(OCCCCC)cc3c3c(cc(OCCCCC)c4oc(-c5ccc(OC)cc5)nc43)c2cc1OCCCCC
0 × 10^3 M^−1 cm^−1

Note: attention shifts to another entry.
Value lookup for ε × 10^3 (M^−1 cm^−1) at 405 nm; key = `CCCCCOc1cc2c3cc(OCCCCC)c(OCCCCC)cc3c3c(cc(OCCCCC)c4oc(-c5ccc(N(C)C)cc5)nc43)c2cc1OCCCCC`
1.5 × 10^3 M^−1 cm^−1

====

Assay: Luminescence data for pairs of compounds absorbing at the same wavelength and emitting at different wavelengths
Type: physicochemical
Details: solvent not given
Description: Referring now to Tables 2 to 4, there is provided luminescence data for pairs of compounds which are capable of absorbing at the same wavelength and emitting at different wavelengths.
In this section we review reported Emission λMax values for a set of molecules.
Report the figure in nm without appending any unit label.

Past entries and their recorded results:
CCCCCOc1cc2c3cc(OCCCCC)c(OCCCCC)cc3c3c(cc(OCCCCC)c4oc(-c5ccc6ccccc6c5)nc43)c2cc1OCCCCC
494
CCCCCOc1cc2c3cc(OCCCCC)c(OCCCCC)cc3c3c(cc(OCCCCC)c4oc(-c5ccc(C#N)cc5)nc43)c2cc1OCCCCC
558
CCCCCOc1cc2c3cc(OCCCCC)c(OCCCCC)cc3c3c(cc(OCCCCC)c4oc(-c5ccc(OC)cc5)nc43)c2cc1OCCCCC
444

Now look at this one.
# query: Emission λMax of entry `CCCCCOc1cc2c3cc(OCCCCC)c(OCCCCC)cc3c3c(cc(OCCCCC)c4oc(-c5ccc(N(C)C)cc5)nc43)c2cc1OCCCCC`
421

====

Reported Emission λmax is given for each of the following compounds.
Test: Luminescent data (absorption, emission, quantum yield, brightness) in solvents
Assay type: physicochemical
Conditions: Ethyl acetate (ϵr 6.0, viscosity 0.45 cP)
Give a bare numeral; the unit nm is implied.

Query: Emission λmax; subject: `CCCCCOc1cc2c3cc(OCCCCC)c(OCCCCC)cc3c3c(cc(OCCCCC)c4oc(-c5ccc6ccccc6c5)nc43)c2cc1OCCCCC`
494

Can you check `CCCCCOc1cc2c3cc(OCCCCC)c(OCCCCC)cc3c3c(cc(OCCCCC)c4oc(-c5ccc6cc7ccccc7cc6c5)nc43)c2cc1OCCCCC` next?
536

Further, for `CCCCCOc1cc2c3cc(OCCCCC)c(OCCCCC)cc3c3c(cc(OCCCCC)c4oc(-c5c6ccccc6cc6ccccc56)nc43)c2cc1OCCCCC` ?
594

====

Assay: Luminescent data (absorption, emission, quantum yield, brightness) in solvents
Type: physicochemical
Settings: Acetonitrile (ϵr 37.5, viscosity 0.38 cP)
In this section, each of the compounds is paired with its reported Φ.
Response field accepts a number only; no unit should be typed.

CCCCCOc1cc2c3cc(OCCCCC)c(OCCCCC)cc3c3c(cc(OCCCCC)c4oc(CCCC)nc43)c2cc1OCCCCC
0.20
CCCCCOc1cc2c3cc(OCCCCC)c(OCCCCC)cc3c3c(cc(OCCCCC)c4oc(-c5ccccc5)nc43)c2cc1OCCCCC
0.46
CCCCCOc1cc2c3cc(OCCCCC)c(OCCCCC)cc3c3c(cc(OCCCCC)c4oc(-c5ccc6ccccc6c5)nc43)c2cc1OCCCCC
0.51
CCCCCOc1cc2c3cc(OCCCCC)c(OCCCCC)cc3c3c(cc(OCCCCC)c4oc(-c5ccc6cc7ccccc7cc6c5)nc43)c2cc1OCCCCC
0.21

Using the record for `CCCCCOc1cc2c3cc(OCCCCC)c(OCCCCC)cc3c3c(cc(OCCCCC)c4oc(-c5cccc6ccccc56)nc43)c2cc1OCCCCC` , report its Φ.
0.36
